Quick list: GI50 per entry.
System: A549
assay details: NCI tumour cell line growth inhibition, 48 h
Activity calls are given as the source filed them. No stated cut-off is given here; in the data, active = GI50 up to about 1.1 µM and inactive = higher.

compound="COC(=O)NC(=O)c1cn(C2OC(CO)C(O)C2O)c(=O)[nH]c1=O (centres undefined)" result="> 100 µM (inactive)"

Query: I am curious: what GI50 value has been reported for COc1cc(CNc2ccc(C)cc2)cc(OC)c1OC ?
Result: 0.5 µM (active)

Query: What does the data say about its GI50? Entry: COc1cc2c(cc1OC)C(=O)/C(=C/c1ccc([N+](=O)[O-])cc1)CC2
Result: > 10 µM (inactive)

Query: Could you tell me which GI50 is on file for Cc1cc(NS(=O)(=O)c2ccc(/N=N/c3c(O)c(C(=O)O)cc4ccccc34)cc2)nc(C)n1 ?
Result: > 100 µM (inactive)

Query: Consider the compound C=C1CCC2C(C)(CO)C(O)CCC2(C)C1C/C=C1\C(=O)OCC1O (centres undefined) and give its measured GI50.
Result: 23.8 µM (inactive)

Query: Requested read-out: GI50. Entry: Cc1cc2[nH]c3c(C#N)c(-c4ccccc4)c(CN4CCOCC4)c(=O)n3c2cc1C
Result: > 100 µM (inactive)

Query: May I ask what GI50 has been recorded for O=[N+]([O-])c1ccc(NN/N=N/c2ccc(-c3nc4ccccc4[nH]3)cc2)c([N+](=O)[O-])c1 ?
Result: 58.3 µM (inactive)

Query: Give the measured GI50 of CCCCOC(=O)C1CC[C@H]2[C@@H]3CCc4cc(OC(=O)c5cccc6c(=O)c7ccccc7[nH]c56)ccc4[C@H]3CC[C@]12C (some centres undefined) .
Result: 9.35 µM (inactive)

Query: Reported GI50, compound O=C(O)[C@H]1NC[C@@H]2ON=C(Br)[C@@H]21 : ____
Result: > 100 µM (inactive)
